# assayExplanation: yeast display, Sf9 membrane polyspecificity reagent, FACS + sequencing; frameworks hold sequencing errors

sequenceContent	polyreactivity (PSR sort gate)
QVQLVESGGGIVQAGGSLRLSCAASGNIFDDNAMGWYRQAPGKDRELVAAITSRGTRTYYADSVKGRFTISRDNAKNTVYLQMNSLKPEDTAVYYCAAGSYYWGQGSQVTVSS	high polyreactivity
QVQLVESGGGLVQAGGSLRLSCAASGRIFNYYAMGWYRQAPGKERELVAAINSGGSTYADSVKGRFTISRDNAKNTVYLQMNSLKPEDTAVYYCAKDGQLQSGRERPSGYDHWGQGTQVTVSS	low polyreactivity
QVQLVESGGGLVQAGGSLLLSCAASGFTFRYYAMGWYRQAPGKERELVAAITGSGTRTYYADSVKGRFTISRDYGKNTVYLQMNSLKPEDPAVYYCNAPRQPRWFDYWGQGTQVTVSS	high polyreactivity
QVQLVESGGGLVQAGGSLRLSCDASGFTLEKNAMGWYRQAPGKERELVADISSTDSTNYADSVKGRFTISRDNAKNTVYIQMNSLKPEDTAVYYCGRYDGPGTEEFDYWGQGTQVTVSS	low polyreactivity

----------
# assayExplanation: yeast display, Sf9 membrane polyspecificity reagent, FACS + sequencing; frameworks hold sequencing errors
observationType: polyreactivity (PSR sort gate)

Known polyreactivity (PSR sort gate) results, listed for orientation:
sequenceContent	result
QVQLVESGGGLVQAGGSLRLSCAASGSTFTKYAMGWYRQEPGKDREFVAGINYSGGSTYYADSVKVRFTISRDNAKNTVYLLMKSLKPEDTAVYYCNARKQNRRGAKYDYWGQGTQVTVSS	high polyreactivity
QVQLVESGGGLVQAGGSLRLSCAASGRTFKVYAMGWYRPAPGKERELVAAISGSGGSTYYADSVKGRFTISRDNAKNTVYLQMNSLKPEDTAVYYCATDPSAPYTQLSSYYYWGQGTQVTVSS	low polyreactivity
QVQLVESGGGLVQAGGSLRLSCAASGRIFYYYAMGWYRQAPGKERELVAAISSIDGTTYYADSVKGRFTISRDNAKNTVYLQMNSLKPEDTAVYYCAAEDPADQYDYWGQGTQVTVSS	high polyreactivity
QVQLVESGGGLVQAGGSLRLSCAASGFTFFPNAKGWYRQAPGKERELVADITDGGSTNYADSVKGRFTISRDNAKNTVYLQMNSLKPEDTAVYYCNADWYGWFGGYEYWGQGTQVTVSS	high polyreactivity

Moving on to the next sequence.
// query Output measured polyreactivity (PSR sort gate) for this item: `QVQLVESGGGLVQAGGSLLLSCAASGSTLGRYAMGWYRQAPGKERELVASITWSDDSTYYADSVKGRFTISRDNAKNTVYLQMNSLKPEDTAVYYCAAAGNLYTYRFYYWGQGTQVTVSS`
// result low polyreactivity

----------
# assayExplanation: yeast display, Sf9 membrane polyspecificity reagent, FACS + sequencing; frameworks hold sequencing errors
observationType: polyreactivity (PSR sort gate)

sequenceContent	result
QVQLVESGGGLDQAGGSLRLSCAAYGSIFYGYAMGWYRTAPGKERELVAAITSGGSTYYADSVKGRFTISRDNAKNTVYLQMNSLKPEDTAVYYCAATFCTWYSWYDYWGQGTQVTVSS	high polyreactivity
QVQLVESGGGLFQAGGSLRLSCAPSGSIFQYNAMGWYRQAPGKERELVAAINRRGTRTYYADSVKGRFTISRDNAKNTVYLQMNSLKPEDTAVYYCNKYQSTDVRSSYSAGYGYWGQGTQVTVSS	high polyreactivity
QGQLVESGGGLVQAGGSLRLSCAASGSIFRPYPMGWYRQAPGKERELVATISSTGITNYADSVKGRFTISRDNAKNTVYLQMNSLKPEDTADYYCSAGLWYSYDYWGQGTQVTVSS	high polyreactivity

----------
# assayExplanation: yeast display, Sf9 membrane polyspecificity reagent, FACS + sequencing; frameworks hold sequencing errors
observationType: polyreactivity (PSR sort gate)

> print(dat)
                            sequencecontent                 observationtype               result
1  QVQLVESGGGLVQAGGSLRLGCAASGGTITSYAMGWYRQAPGKERELVAAITVSGSSTYYADSVKGRFTISRDNAKNTVYLQMNSLKPEDTAVYYCAARWRRFQFDYWGQGTQVTVSS  polyreactivity (PSR sort gate)  high polyreactivity
2  QVQLVESGGGLVQAGGSLRLSCAASGRIFRYYAMGWYRQSPGKEREFVAAINWSGGSTYYADSVKGRITISRDNAKNTVYLQMNSLKREDTAVYYCAALITQSYDYWGQGSQVTVSS  polyreactivity (PSR sort gate)  high polyreactivity

----------
# assayExplanation: yeast display, Sf9 membrane polyspecificity reagent, FACS + sequencing; frameworks hold sequencing errors
observationType: polyreactivity (PSR sort gate)

sequenceContent	result
QVQLVESAGGLVQAGGSLRLSCAASGRTIRWYTMGWYRQAPGKERELVAGISSSGGSTYYADSVKGRFTISRDTAKNTVYLQMNSLKPEDTAVYYCNVVTWYYVFRPWEYDYWGQGTQVTVSS	low polyreactivity
QVQLVESGGGLVQAGGSLRLSCAASGITFPRYAMGWYRQAPGKERELVARITSGGRTNYADSVKGRFTISRDNAKNTVYLQMYSLKPEDTAVYYCNAVGWVRSQVRLGYWGQGTQVTVSS	high polyreactivity
QVQHEESGGGLVQAGGSLRLSCAASGSIIAYNAMGWYRQAPGKERELVAAITDSGGSTFDADSVKGRFTFSRDYGMITVYLQMNSLIPEDTAVYYCATSGDRLVWGQGTQVTVSS	low polyreactivity
QVQLVESGGGLVQAGGSLRLSCAASGRTFGGYTMGWYRQAPGKERALVAAIRWSGGRTYYADSVKGRFTISRDNAKNTVYLQMNSLKPEDTAVYYCNARYVFPYYWGQGTQVTVSS	high polyreactivity

Moving on to the next sequence.
// query Output measured polyreactivity (PSR sort gate) for this item: `QVQLVESGGGLVQAGGSLRLSCSAYGSTLGYYAMGWYRQAPGKERELVAAIRYSDGNTYYADSVKGRFTISRDNAKNTVYLQMNSLKPEDTAVYYCAADGGYYGRDYWGQGTQVTVSS`
// result high polyreactivity

----------
# assayExplanation: yeast display, Sf9 membrane polyspecificity reagent, FACS + sequencing; frameworks hold sequencing errors
observationType: polyreactivity (PSR sort gate)

sequenceContent	polyreactivity (PSR sort gate)
QVQLVESGGGLVQAGGSLRLSCAASGFTFRKYAMGWYRPAPGKERELVAAITANGGRTYYADSVKGRFTISRDNAKNTVYLQMNSLKPEDTAVYYCARDWGKSEYDYWGQGTQVTVSS	high polyreactivity
QVQLLESGGGLVQAGGSLRLSCAASGYIFGWYTMGWYRQAPGKERELVAAISYSGGDTYYADSVKGRFTNTRDNAKNTVYLQMNSLKPEDTAVYYCAAVDPASPLGEYWGQGTQVTVSS	low polyreactivity
QVQLVESGGGLVQAGGSLRLSCAPSGSIFDFNTMGWYRQAPGKERELVAAISQRTGRTYYADSVKGRFTISRDNAKNTVYLQMNSLKPEDTAVYYCARTDRRLGAHQGDYWGQGTQVTVSS	high polyreactivity
QVQLVESGGGLVQAGGSLRLSCAASGRIFTNYAMGWYRQAPGKERELVAAINWDGGSTYYADSVKGRFTISRDNAKNTVYLQMNSLKPEDTAVYYCAAQGGLSEFDYWGQGTQVTVSS	low polyreactivity
QVQLVESGGGLVQAGGSLRLSCAASGSILFTNAMGWYRQAPGKERELVAAISSGGSTYYADSVKGRFTISRDNAKNTVYLQMNSLKPEDTAVYYCAASDHYRWYVHRWEDPFYYWGQGTQVTVSS	low polyreactivity

Moving on to the next sequence.
// query Output measured polyreactivity (PSR sort gate) for this item: `QVQLVESGGGLVQAGGSLRLICAASGRIFYSYSMGWSRPAPGKERELVATITTSGKTYYADSVNGRFTISRDNAKNTVYLQMNSLIPDDTAVYYCNAGWDLVYGYYPRRKIFDYWGQGTQVTVSS`
// result high polyreactivity

----------
# assayExplanation: yeast display, Sf9 membrane polyspecificity reagent, FACS + sequencing; frameworks hold sequencing errors
observationType: polyreactivity (PSR sort gate)

sequenceContent	observationType	result
QVQLVESGGGLVQAGGSLRLSCAASGFTFNIKTKGSDRQAPGKDRELVAAITSGGNSSYADSVKGRLTISRDNAKNTVYLQMNRVKPEDTAVYYCATEDFRTDTGMYYWGQGTQVTVSS	polyreactivity (PSR sort gate)	low polyreactivity
QVQLVESGGGLVQAGGSLRLSCAASGIIYRQNAMGWYRQATRKEREFVAAISSGGNTYYADSVKGRFTISRDNAKNTVYLQMNSLKPEDTGFYYCAADVEDRYHRAWFDYWGQGTKVTVSS	polyreactivity (PSR sort gate)	low polyreactivity
QVQLVESGGGLVQAGGSLRLSCAASGFIFAINAMGWYRQAPGKEREFVAAISSDGASTYYADSVKGRFTISRDNAKNTVYLQMNSLKPEDTAVYYCNAVPYEWTYPYEYYYWGQGTQVTVSS	polyreactivity (PSR sort gate)	low polyreactivity
QVQLVESGGGLVQAGGSLRLSCAAYGSIFGVNVMGWYRQSPGKERELVAAIDVSDTSTYYADSVKGRFTMSRDNAKNTVYLQLNSLKPDDTAVYYCAADGLRWWPFEYRFTFDYWGQGTQVTVSS	polyreactivity (PSR sort gate)	low polyreactivity
QVQLVESGGGLVQAGGSLRLSCAASRRIIYRSAMGWYRQAPGKERELLAAITSGDSTYYADSVKVRFTISRDNSKNTVFLQMNSLKPEDTAVYYCAADYLSRSPAYEHYYWGQGTQVTVSS	polyreactivity (PSR sort gate)	high polyreactivity

Moving on to the next sequence.
// query Output measured polyreactivity (PSR sort gate) for this item: `QVQLVESGGGLVQAGGSLRLSCAASGLTFYYYAMGWYRQATGKERELVATITRSGGGTYFADSVKGRFTISRDNAKNTVYLQMNSLKPEDTAVYYCAADLSWYVLFSGLYDYWGQGTQVTVSS`
// result high polyreactivity

Each recorded value in this set is attributed to the nanobody polyreactivity screen of Harvey et al. (2022).
